Value source: paper PMC5540273

Answer each item with its documented %Inh.
# Test system: BIKE;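 also: KINOMEscan kinase panel screen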
# Construct: gene BMP2K
# EXPERIMENTAL PARAMETERS: concentration: 1 μM, replicates: in singlicate; n = 1
I only need the number, in %, no unit after it.

Q: Requested field: %Inh. Item: `Cc1cccc(-c2cc(Nc3ccncc3)c3ccccc3n2)n1`
Result: 9

Q: What value of measured %Inh is listed for `Nc1nc(-c2nccs2)c(-c2ccnc3ccccc23)s1` ?
Result: 4

Q: Given the compound `Nc1ncnc2[nH]c(-c3ccccc3)nc12` , what is its reported %Inh?
Result: 24

Q: What %Inh value was documented for this compound, `Cl.c1ccc(-c2n[nH]cc2-c2ccnc(-c3ccc(CN4CCOCC4)cc3)c2)nc1` ?
Result: 20

Q: Quick one: %Inh of `CC(C)(C)c1ccc(C(=O)Nc2cn3cc(Cl)ccc3n2)cc1` ?
Result: 0

Q: Recorded %Inh of `COc1ccccc1-c1ccc2c(NC(=O)C3CC3)n[nH]c2n1` , please.
Result: 0

Q: What value of %Inh has been recorded for this entry: COc1cc(Nc2nccc(N3CCC(NC(=O)Nc4cc(C)ccc4C)C3)n2)cc(OC)c1OC (stereo not shown)
Result: 60

Q: Entry `Fc1cc(Cl)ccc1Nc1ccnc2cc(-c3ccc(CN4CCCCC4)o3)ccc12` : reported %Inh = ?
Result: 0

Q: Item under review: `Cc1cccc(-c2nc(C)cc(Nc3ccncc3)n2)n1` . Reported %Inh?
Result: 21

Q: Item Cc1nnc(-c2ccc3occ(-c4ccc(S(C)=O)cc4)c3c2)[nH]1 (stereo not shown) has what recorded %Inh?
Result: 0
